Assay Name: brain tissue binding by equilibrium dialysis, mouse
Assay type: in vitro ADME
Experimental Setup: brain tissue, equilibrium dialysis 5 h, read-out: f ND (brain-free fraction)
Endpoint Label: fraction unbound at 5 h, 1 μg/mL

[[record]]
smiles_code = "Cc1cc(F)c2[nH]c(=O)n(C3CCN(C4CCOCC4)CC3)c2c1"
endpoint_label = "fraction unbound at 5 h, 1 μg/mL"
measurement = 0.13


---

Assay Name: plasma protein binding by equilibrium dialysis, dog
Format: in vitro ADME
Experimental Setup: equilibrium dialysis 5 h, mean ± SD, n = 6, read-out: Plasma protein binding (converted)
Endpoint Label: fraction unbound at 5 h, 1 μg/mL

[[record]]
smiles_code = "Cc1cc(F)c2[nH]c(=O)n(C3CCN(C4CCOCC4)CC3)c2c1"
endpoint_label = "fraction unbound at 5 h, 1 μg/mL"
measurement = 0.555

